# Test system: S. aureus MRSA (ATCC 43300)
# method summary: MIC susceptibility testing
# Format: cell-based
# test parameters: Staphylococcus aureus; read-out: S. aureus MRSA (ATCC 43300) MIC
So I've got a bunch of molecules here, and I need their MIC values.
All answers are understood in µg/mL, so give the number only.

Exam item: I'm curious: which MIC was measured for Fc1ccc2nc(NCCCNCc3cc(Cl)cc(Cl)c3)[nH]c2n1 tested on S. aureus MRSA (ATCC 43300)?
Marked response: 5

Exam item: I'm curious: which MIC was measured for CCn1c(Cc2ccc(OC)cc2Cl)cn(Cc2nc3nc(Cl)ccc3[nH]2)c1=O tested on S. aureus MRSA (ATCC 43300)?
Marked response: 0.313

Exam item: I'm curious: which MIC was measured for Fc1ccc2nc(NCCCN[C@@H]3CCNc4c(Cl)cc(Cl)cc43)[nH]c2n1 [Compound 1717, reference compound] tested on S. aureus MRSA (ATCC 43300)?
Marked response: 0.156

Exam item: I'm curious: which MIC was measured for Oc1cc(NCCCNCc2cc(Cl)cc(Cl)c2)nc2ccccc12 tested on S. aureus MRSA (ATCC 43300)?
Marked response: 5

====

So I've got a bunch of compounds here, and I need their MIC values.
# System: S. pneumoniae (ATCC 49619)
# method summary: MIC susceptibility testing
# Assay type: cell-based
# test parameters: Streptococcus pneumoniae, ATCC49619, 18 h; medium with 3% laked horse blood; read-out: S. pneumoniae (ATCC 49619) MIC

Exam item: Which MIC is reported for this compound? CC(=O)NC[C@H]1CN(c2ccc(N3CCOCC3)c(F)c2)C(=O)O1 [LNZ, linezolid]
Marked response: 1.25 µg/mL

Exam item: Which MIC is reported for this compound? Fc1ccc2nc(NCCCN[C@@H]3CCNc4c(Cl)cc(Cl)cc43)[nH]c2n1 [Compound 1717, reference compound]
Marked response: > 20 µg/mL

Exam item: Which MIC is reported for this compound? Fc1ccc2nc(NCCCNCc3cc(Cl)cc(Cl)c3)[nH]c2n1 [Compound 1614]
Marked response: > 10 µg/mL

Exam item: Which MIC is reported for this compound? Clc1cc(Cl)cc(CNCCCNc2nc3ncccc3[nH]2)c1 [Compound 1575]
Marked response: > 10 µg/mL

Exam item: Which MIC is reported for this compound? COc1cc(Cl)c(-c2cccc3nc(Cc4nc5nc(Cl)ccc5[nH]4)cn23)cc1OC [Compound 2144]
Marked response: > 20 µg/mL

Exam item: Which MIC is reported for this compound? CCn1c(Cc2ccc(OC)cc2Cl)cn(Cc2nc3nc(Cl)ccc3[nH]2)c1=O [Compound 2093]
Marked response: > 20 µg/mL

====

# System: S. aureus MRSA (ATCC 43300)
# method summary: MIC susceptibility testing
# Assay type: cell-based
# test parameters: Staphylococcus aureus; read-out: S. aureus MRSA (ATCC 43300) MIC
So I've got a bunch of compounds here, and I need their MIC values.
All answers are understood in µg/mL, so give the number only.

Exam item: Which MIC is reported for this compound? O=c1[nH]c(Cc2ccc(Cl)cc2Cl)cn1Cc1nc2ccc(F)nc2[nH]1 [Compound 1962, reference compound]
Marked response: 5

Exam item: Which MIC is reported for this compound? COc1cc(Cl)c(-c2cccc3nc(Cc4nc5nc(Cl)ccc5[nH]4)cn23)cc1OC [Compound 2144]
Marked response: 0.039

Exam item: Which MIC is reported for this compound? CC(=O)NC[C@H]1CN(c2ccc(N3CCOCC3)c(F)c2)C(=O)O1 [LNZ, linezolid]
Marked response: 2.5

Data origin, for the record: patent US11584744B2
